assay: Cytotoxicity against human 502713 cells at 10 uM after 48 hrs; assay type: functional; conditions: Homo sapiens, 502713, 48 h
Consider the following compounds and their measured inhibition at 10 µM readings.

| record.smiles | inhibition at 10 µM / % |
| --- | --- |
| CC(=O)O[C@H]1CC[C@@]2(C)[C@@H](CC[C@]3(C)[C@@H]2CC=C2[C@@H]4[C@@H](C)[C@H](C)CC[C@]4(C)CC[C@]23C)[C@@]1(C)C(=O)O | 12 |
| CCCC(=O)N[C@]1(C)[C@@H]2CC[C@]3(C)[C@H](CC=C4[C@@H]5[C@@H](C)[C@H](C)CC[C@]5(C)CC[C@]43C)[C@@]2(C)CC[C@H]1OC(=O)CCC | 7 |
| CCCC(=O)N[C@]1(C)[C@@H]2CC[C@]3(C)[C@H](C(=O)C=C4[C@@H]5[C@@H](C)[C@H](C)CC[C@]5(C)CC[C@]43C)[C@@]2(C)CC[C@H]1OC(=O)CCC | 12 |
| CC(=O)O[C@@H]1CC[C@@]2(C)[C@@H](CC[C@]3(C)[C@@H]2CC=C2[C@@H]4[C@@H](C)[C@H](C)CC[C@]4(C)CC[C@]23C)[C@@]1(C)N=C=O | 0 |
| CCC(=O)N[C@]1(C)[C@@H]2CC[C@]3(C)[C@H](C(=O)C=C4[C@@H]5[C@@H](C)[C@H](C)CC[C@]5(C)CC[C@]43C)[C@@]2(C)CC[C@H]1OC(=O)CC | 24 |
| C[C@H]1[C@H](C)CC[C@]2(C)CC[C@]3(C)C(=CC(=O)[C@@H]4[C@@]5(C)CC[C@H](O)[C@](C)(N)[C@@H]5CC[C@]43C)[C@H]12 | 0 |
| CC(=O)O[C@H]1CC[C@@]2(C)[C@@H](CC[C@]3(C)[C@@H]2C(=O)C=C2[C@@H]4[C@@H](C)[C@H](C)CC[C@]4(C)CC[C@]23C)[C@@]1(C)C(=O)O | 23 |
| CC(=O)O[C@H]1CC[C@@]2(C)[C@@H](CC[C@]3(C)[C@@H]2C(=O)C=C2[C@@H]4[C@@H](C)[C@H](C)CC[C@]4(C)CC[C@]23C)[C@@]1(C)N=C=O | 0 |
| C[C@H]1[C@H](C)CC[C@]2(C)CC[C@]3(C)C(=CC[C@@H]4[C@@]5(C)CC[C@H](O)[C@](C)(N)[C@@H]5CC[C@]43C)[C@H]12 | 23 |

====

assay: Cytotoxicity against human 502713 cells at 10 uM after 48 hrs; type: functional; conditions: Homo sapiens, 502713, 48 h

| record.smiles | unit.symbol | inhibition at 10 µM |
| --- | --- | --- |
| C[C@H]1[C@H](C)CC[C@]2(C)CC[C@]3(C)C(=CC(=O)[C@@H]4[C@@]5(C)CC[C@@H](O)[C@](C)(N)[C@@H]5CC[C@]43C)[C@H]12 | % | 86 |
| CC(=O)O[C@H]1CC[C@@]2(C)[C@@H](CC[C@]3(C)[C@@H]2CC=C2[C@@H]4[C@@H](C)[C@H](C)CC[C@]4(C)CC[C@]23C)[C@@]1(C)N=C=O | % | 3 |
| COC(=O)[C@]1(C)[C@@H]2CC[C@]3(C)[C@H](CC=C4[C@@H]5[C@@H](C)[C@H](C)CC[C@]5(C)CC[C@]43C)[C@@]2(C)CC[C@@H]1O | % | 9 |
| CC(=O)O[C@@H]1CC[C@@]2(C)[C@@H](CC[C@]3(C)[C@@H]2CC=C2[C@@H]4[C@@H](C)[C@H](C)CC[C@]4(C)CC[C@]23C)[C@@]1(C)C(=O)O | % | 20 |
| CC(=O)O[C@@H]1CC[C@@]2(C)[C@@H](CC[C@]3(C)[C@@H]2C(=O)C=C2[C@@H]4[C@@H](C)[C@H](C)CC[C@]4(C)CC[C@]23C)[C@@]1(C)C(=O)O | % | 8 |

====

Consider the following compounds and their measured inhibition at 10 µM readings.
assay: Cytotoxicity against human 502713 cells at 10 uM after 48 hrs; assay type: functional; settings: Homo sapiens, 502713, 48 h
property.name: inhibition at 10 µM (%)

| record.smiles | value.measured |
| --- | --- |
| CC(=O)O[C@@H]1CC[C@@]2(C)[C@@H](CC[C@]3(C)[C@@H]2C(=O)C=C2[C@@H]4[C@@H](C)[C@H](C)CC[C@]4(C)CC[C@]23C)[C@@]1(C)N=C=O | 2 |
| CCC(=O)N[C@@]1(C)[C@@H](OC(=O)CC)CC[C@@]2(C)[C@H]1CC[C@]1(C)[C@@H]2CC=C2[C@@H]3[C@@H](C)[C@H](C)CC[C@]3(C)CC[C@]21C | 0 |
| C[C@H]1[C@H](C)CC[C@]2(C)CC[C@]3(C)C(=CC(=O)[C@@H]4[C@@]5(C)CC[C@@H](O)[C@](C)(C(=O)O)[C@@H]5CC[C@]43C)[C@H]12 | 0 |
| COC(=O)[C@]1(C)[C@@H]2CC[C@]3(C)[C@H](C(=O)C=C4[C@@H]5[C@@H](C)[C@H](C)CC[C@]5(C)CC[C@]43C)[C@@]2(C)CC[C@@H]1O | 10 |
| C[C@H]1[C@H](C)CC[C@]2(C)CC[C@]3(C)C(=CC[C@@H]4[C@@]5(C)CC[C@H](O)[C@](C)(C(=O)O)[C@@H]5CC[C@]43C)[C@H]12 | 18 |
| COC(=O)[C@@]1(C)C(=O)CC[C@]2(C)[C@H]3C(=O)C=C4[C@@H]5[C@@H](C)[C@H](C)CC[C@]5(C)CC[C@@]4(C)[C@]3(C)CC[C@@H]12 | 20 |
| CO[C@@]12[C@H](COC(N)=O)C3=C(C(=O)C(C)=C(N)C3=O)N1C[C@@H]1N[C@@H]12 | 84 |
| COC(=O)[C@@]1(C)[C@H](O)CC[C@@]2(C)[C@H]1CC[C@]1(C)[C@@H]2C(=O)C=C2[C@@H]3[C@@H](C)[C@H](C)CC[C@]3(C)CC[C@]21C | 19 |
| C[C@H]1[C@H](C)CC[C@]2(C)CC[C@]3(C)C(=CC(=O)[C@@H]4[C@@]5(C)CC[C@H](O)[C@](C)(C(=O)O)[C@@H]5CC[C@]43C)[C@H]12 | 27 |
| C[C@H]1[C@H](C)CC[C@]2(C)CC[C@]3(C)C(=CC[C@@H]4[C@@]5(C)CC[C@@H](O)[C@](C)(C(=O)O)[C@@H]5CC[C@]43C)[C@H]12 | 24 |
| CC(=O)O[C@@H]1CC[C@]2(C)[C@H]3CC=C4[C@@H]5[C@@H](C)[C@H](C)CC[C@]5(C)CC[C@@]4(C)[C@]3(C)CC[C@H]2[C@@]1(C)N | 96 |
